System: Staphylococcus aureus
Assay: Antibacterial activity against Staphylococcus aureus USA200-NRS383 measured after 16 to 20 hrs in presence of 2% NaCl by microdilution broth method
Format: functional
MIC by entry:
Report the value in µg/mL with no unit label.

Previously resolved entries follow.
• CS(=O)(=O)/C(C#N)=C/c1c(F)ccc(Cc2ccc(Cl)c(Cl)c2)c1F = 16
• CS(=O)(=O)/C(C#N)=C/c1cc(Cc2ccc(Cl)c(Cl)c2)ccc1OC(F)(F)F = 32
• CS(=O)(=O)/C(C#N)=C/c1cc(-c2ccc(Cl)c(Cl)c2)ccc1F = 16

Exercise: Determine from records and report MIC for N#C/C(=C\c1cc(Cc2ccc(Cl)c(Cl)c2)ccc1F)S(=O)(=O)c1ccccn1
Solution: 16
